Kindly supply the reported GI50 values for the records listed here.
Test system: OVCAR-4
Experiment: NCI tumour cell line growth inhibition, 48 h
The source made the active and inactive calls. No stated cut-off is given here; in the data, active = GI50 up to about 1.1 µM and inactive = higher.

See these solved cases before continuing.
- Compound: "CCOC(=O)c1csc(NC(=O)C(C)N2CCCCC2)n1 (stereo not given)"
  Assay Target: "OVCAR-4"
  GI50: "> 100 µM (inactive)"
- Compound: "CC(C)=CCc1c(O)c(CC2=C(O)C(CC=C(C)C)(C(=O)C(C)C)C(O)=C(C)C2=O)c(O)c(C(=O)C(C)C)c1O (stereo not given)"
  Assay Target: "OVCAR-4"
  GI50: "15.8 µM (inactive)"
- Compound: "COc1ccc(C(SCCO)(c2ccccc2)c2ccc(OC)cc2)cc1"
  Assay Target: "OVCAR-4"
  GI50: "15.8 µM (inactive)"
- Compound: "CC(=O)[C@H]1CC[C@@H]2[C@]1(C)CC=C1[C@]23C=C[C@]2(C[C@@H](O)CC[C@]12C)C(C(=O)O)C3C(=O)O (stereo not given in full)"
  Assay Target: "OVCAR-4"
  GI50: "> 100 µM (inactive)"

Now consider a different compound.
input: I am curious: what GI50 value has been reported for "CSc1ccc2c(cc1=O)[C@@H](NC(=O)c1cccc([N+](=O)[O-])c1)CCc1cc(O)c(O)c(O)c1-2" ?
output: 50 µM (inactive)
